experimental details: qHTS assay for small molecule agonists of the p53 signaling pathway (AID 651631); further: nearly all actives have a fitted effect of over 15% in size
condition info: HCT-116 p53RE-bla reporter, beta-lactamase FRET ratio, 16 h; series mostly up to 73.3 µM
Records with an inconclusive call do not appear. Calls of active or inactive are those of the source. The call rests on the fitted dose curve.
Outcome field: choose from active, inactive

Would you please look over these solved cases?
CCCCCCOC(=O)CCCCC | inactive
C=C(C)C(=O)OCCC(F)(F)C(F)(F)C(F)(F)C(F)(F)C(F)(F)C(F)(F)F | inactive
SCCc1cnccn1 | active
CCC(CO)(CO)CO | inactive
[Cl][Nd]([Cl])[Cl] | inactive

Query: recorded result category for CNS(=O)(=O)c1cc(C(=O)N2CCC(CCN3C4CCC3CC(n3c(C)nc5ccccc53)C4)(c3cccc(F)c3)CC2)c(Cl)cc1F (stereo not given) in this test
inactive

Assay result, entry "O=C(C(=O)c1ccco1)c1ccco1" — outcome?
inactive

Tell me the assay call for "COc1ccc(N)c([N+](=O)[O-])c1" please.
inactive

Dear all, I need the recorded test outcome for "FC(F)(F)C(F)(F)C(F)(F)C(F)(F)CCI" , thank you.
inactive

Tell me the assay call for "CC[C@H]1OC(=O)[C@H](C)[C@@H](O[C@H]2C[C@@](C)(OC)[C@@H](O)[C@H](C)O2)[C@H](C)[C@@H](O[C@@H]2O[C@H](C)C[C@H](N(C)C)[C@H]2O)[C@](C)(O)C[C@@H](C)C(=O)[C@H](C)[C@@H](O)[C@]1(C)O" please.
inactive

These entries and their values trace back to PubChem BioAssay (Tox21).
